assay: self-splicing fitness, log relative to wild type (ln ratio); higher = more splicing; Tetrahymena group I intron in knt gene, E. coli kanamycin selection, DiMSum; sequences stand for … in CUCUCU…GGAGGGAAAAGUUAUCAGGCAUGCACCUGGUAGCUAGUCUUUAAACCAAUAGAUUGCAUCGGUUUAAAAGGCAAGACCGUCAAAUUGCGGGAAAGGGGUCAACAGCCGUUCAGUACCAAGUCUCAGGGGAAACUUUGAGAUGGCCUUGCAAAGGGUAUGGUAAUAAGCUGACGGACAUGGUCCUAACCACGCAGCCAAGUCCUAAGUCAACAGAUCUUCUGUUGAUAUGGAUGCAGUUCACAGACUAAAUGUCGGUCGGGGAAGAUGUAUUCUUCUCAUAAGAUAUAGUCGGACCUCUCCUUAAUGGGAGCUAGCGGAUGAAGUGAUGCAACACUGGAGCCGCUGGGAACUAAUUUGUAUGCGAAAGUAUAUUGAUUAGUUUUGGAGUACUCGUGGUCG; conditions: 30 °C;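 note: selection with 25 µg/mL kanamycin versus none on LB agar overnight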
# if value of self-splicing fitness (ln) reaches -2, tag 1; if it stays below, tag -1

Example entries begin here.
{"seqString": "AUGUAGCAAUAUUACGUGCU", "labelValue": 1}
{"seqString": "UUUCAGCAAUAUUACGCAGG", "labelValue": -1}
{"seqString": "CAUAAGCAAUAUUACGAUGU", "labelValue": -1}
{"seqString": "GGACAGCAAUAUUACGUUUC", "labelValue": -1}
{"seqString": "UAAUAGCAAUAUUACGUUUC", "labelValue": -1}
{"seqString": "AUAUAGCAAUAUUACGUUAU", "labelValue": -1}
{"seqString": "ACCCAGCAAUAUUACGGUUG", "labelValue": -1}
{"seqString": "GGCCAGCAAUAUUACGACUC", "labelValue": 1}
{"seqString": "ACUCAGCAAUAUUACGGUCU", "labelValue": 1}
{"seqString": "GGUUAGCAAUAUUACGGGGU", "labelValue": -1}

# input Dear colleague, could you confirm whether CUCCAGCAAUAUUACGUUCA has self-splicing fitness (ln) at or above -2?
# output -1

# input What about UUUGAGCAAUAUUACGUUGG ?
# output -1

# input Do the same for AUGUAGCAAUAUUACGUUAA please
# output -1

# input And for CGGGAGCAAUAUUACGAUGC ?
# output -1

# input # repeat for GAAGAGCAAUAUUACGCCCC
# output 1

# input Also UUUAAGCAAUAUUACGGAGC ?
# output 1

# input Please answer likewise for CCGCAGCAAUAUUACGACAU
# output -1

# input Lookup AAUAAGCAAUAUUACGAUCC
# output 1

# input Query GCAUAGCAAUAUUACGAGUG next
# output -1

# input Same again, this time with CUGCAGCAAUAUUACGUAUA
# output -1

# input // query: CGUAAGCAAUAUUACGCCAA
# output -1

# input Then this sequence: AACAAGCAAUAUUACGAGCG
# output 1

# input Check CGUUAGCAAUAUUACGCCUU too.
# output -1

# input Could you do the same for UUUAAGCAAUAUUACGACAC , please?
# output -1

# input Same thing, different sequence: UUGUAGCAAUAUUACGCCAA
# output 1

# input Ok, now GAAUAGCAAUAUUACGCGAC
# output 1

# input Do the same for AGCUAGCAAUAUUACGCCAC please
# output -1

# input Another sequence: GCUCAGCAAUAUUACGAUCC
# output 1

# input Another sequence to look at: AAGAAGCAAUAUUACGAUGG
# output 1

# input How about GUACAGCAAUAUUACGGACA ?
# output -1

# input Repeat for the following sequence: GUGUAGCAAUAUUACGAGGA
# output -1

# input Could you do the same for ACAUAGCAAUAUUACGAUCU , please?
# output 1

# input CCUAAGCAAUAUUACGAUAU , same question.
# output -1

# input Would you kindly repeat that for GACGAGCAAUAUUACGUCGU ?
# output -1

# input Now the sequence UGAGAGCAAUAUUACGGGUA
# output -1

----------
experiment: self-splicing fitness, log relative to wild type (ln ratio); higher = more splicing; Tetrahymena group I intron in knt gene, E. coli kanamycin selection, DiMSum; sequences stand for … in CUCUCU…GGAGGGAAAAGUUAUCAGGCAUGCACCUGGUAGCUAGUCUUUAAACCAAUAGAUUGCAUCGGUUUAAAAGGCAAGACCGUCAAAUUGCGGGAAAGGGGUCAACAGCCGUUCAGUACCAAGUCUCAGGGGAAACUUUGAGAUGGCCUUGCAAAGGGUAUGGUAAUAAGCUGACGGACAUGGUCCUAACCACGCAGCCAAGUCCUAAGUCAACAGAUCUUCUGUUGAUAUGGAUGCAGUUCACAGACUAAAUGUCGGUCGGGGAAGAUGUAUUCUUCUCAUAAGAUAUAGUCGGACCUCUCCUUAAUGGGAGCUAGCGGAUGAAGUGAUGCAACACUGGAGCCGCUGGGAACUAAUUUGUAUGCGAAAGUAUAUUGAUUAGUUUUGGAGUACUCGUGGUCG; settings: 30 °C
We use -3 as the dividing line for self-splicing fitness (ln): on or above the line is 1, below is -1.

Solved entries (count: 10):
{"seqString": "CGGAAGCAAUAUUACGGAAC", "labelValue": 1}
{"seqString": "AAUUAGCAAUAUUACGAAAG", "labelValue": -1}
{"seqString": "UGUUAGCAAUAUUACGUUCU", "labelValue": 1}
{"seqString": "UUCCAGCAAUAUUACGAGUU", "labelValue": -1}
{"seqString": "ACGCAGCAAUAUUACGCGGC", "labelValue": -1}
{"seqString": "GCACAGCAAUAUUACGUCAC", "labelValue": -1}
{"seqString": "GCUCAGCAAUAUUACGCUGU", "labelValue": 1}
{"seqString": "GUCCAGCAAUAUUACGGAUC", "labelValue": -1}
{"seqString": "UCCCAGCAAUAUUACGGAGA", "labelValue": 1}
{"seqString": "GCGGAGCAAUAUUACGUGCG", "labelValue": -1}

# input Assess whether reported self-splicing fitness (ln) for CUAGAGCAAUAUUACGAAGG sits at -3 or higher.
# output 1

# input Cool, now CGAUAGCAAUAUUACGCCGU
# output 1

# input Record: GGCUAGCAAUAUUACGUAUU
# output 1

# input Param item: GUAGAGCAAUAUUACGAUGU
# output 1

----------
assay: self-splicing fitness, log relative to wild type (ln ratio); higher = more splicing; Tetrahymena group I intron in knt gene, E. coli kanamycin selection, DiMSum; sequences stand for … in CUCUCU…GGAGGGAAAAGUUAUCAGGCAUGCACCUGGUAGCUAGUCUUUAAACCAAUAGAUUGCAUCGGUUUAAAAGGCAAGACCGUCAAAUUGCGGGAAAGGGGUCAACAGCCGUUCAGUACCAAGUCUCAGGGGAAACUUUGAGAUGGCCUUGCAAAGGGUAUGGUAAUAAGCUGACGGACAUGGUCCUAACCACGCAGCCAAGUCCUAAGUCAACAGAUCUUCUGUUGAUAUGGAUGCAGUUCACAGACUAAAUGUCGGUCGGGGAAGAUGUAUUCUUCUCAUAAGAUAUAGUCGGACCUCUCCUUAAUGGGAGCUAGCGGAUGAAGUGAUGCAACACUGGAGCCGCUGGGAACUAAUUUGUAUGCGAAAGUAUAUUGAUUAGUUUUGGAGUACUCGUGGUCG; conditions: 30 °C
Class 1: self-splicing fitness (ln) at least -3. Class 0: self-splicing fitness (ln) below -3.

{"seqString": "UAUCAGCAAUAUUACGGAUU", "labelValue": 1}
{"seqString": "CUUGAGCAAUAUUACGGUUU", "labelValue": 1}
{"seqString": "UCACAGCAAUAUUACGGGUC", "labelValue": 0}
{"seqString": "UAGAAGCAAUAUUACGUCUA", "labelValue": 1}
{"seqString": "UACCAGCAAUAUUACGCAGU", "labelValue": 0}

Now consider a different sequence.
# input Does the reported self-splicing fitness (ln) for CGAAAGCAAUAUUACGGCUG fall at or above the -3 mark?
# output 1

----------
test: self-splicing fitness, log relative to wild type (ln ratio); higher = more splicing; Tetrahymena group I intron in knt gene, E. coli kanamycin selection, DiMSum; sequences stand for … in CUCUCU…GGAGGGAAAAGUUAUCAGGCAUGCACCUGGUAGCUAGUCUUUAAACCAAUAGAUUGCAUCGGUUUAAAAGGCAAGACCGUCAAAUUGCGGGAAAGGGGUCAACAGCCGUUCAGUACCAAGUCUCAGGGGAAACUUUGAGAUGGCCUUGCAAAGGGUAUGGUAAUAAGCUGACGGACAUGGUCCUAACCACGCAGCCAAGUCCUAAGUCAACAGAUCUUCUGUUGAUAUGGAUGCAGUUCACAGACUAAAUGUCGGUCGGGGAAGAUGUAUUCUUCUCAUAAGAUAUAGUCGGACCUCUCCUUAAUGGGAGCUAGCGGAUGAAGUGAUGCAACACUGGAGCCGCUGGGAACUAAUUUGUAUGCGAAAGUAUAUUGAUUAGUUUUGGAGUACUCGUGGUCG; conditions: 37 °C
experimentalReadout: self-splicing fitness (ln)
Form: value (number only, do not type unit).

# count of solved cases: 2
{"seqString": "ACUUAGCAAUAUUACGUGGU", "endpointValue": -2.26}
{"seqString": "CCACAGCAAUAUUACGCACC", "endpointValue": -1.71}

Now examine the next entry.
# input Could you tell me which self-splicing fitness (ln) is on file for GUAUAGCAAUAUUACGUUUG ?
# output -2.11
